Tested on: BDF1 mice, P388 leukemia ip, median survival T/C
assay: NCI In Vivo Anticancer Drug Screen. Data for tumor model P388 Leukemia (intraperitoneal) in B6D2F1 (BDF1) mice
condition-label: endpoint: median survival time; dose: 12.5 mg/kg/injection; schedule: Q04DX003 (ip); vehicle: saline with Tween-80; higher = longer survival
Toxic doses and inconclusive results are not listed.
Assignment: determine reported T/C for the given compounds.

[[record]]
compound = "Clc1ccc2c(c1)N(CCCN1CCCC13CCCCC3)c1ccccc1S2"
test_system = "BDF1 mice, P388 leukemia ip, median survival T/C"
obs_value = "95 % of control"


Working through the 4 compounds below one at a time, give T/C for each.
1. O=[N+]([O-])c1cccc(N2CN(c3ccccc3)NC(c3ccccc3)=N2)c1
2. [Cu+2].[O-]c1ccc(Br)c2cccnc12.[O-]c1ccc(Br)c2cccnc12
3. CCCCCCCCCC(=O)NC(CN1CCOCC1)C(=O)c1ccccc1 (stereo not given)
4. CN1CCC(OC(=O)c2ccc3c(c2)OCO3)CC1

Solution:
["100 % of control", "100 % of control", "95 % of control", "100 % of control"]

###

Test system: BDF1 mice, P388 leukemia ip, median survival T/C
assay: NCI In Vivo Anticancer Drug Screen. Data for tumor model P388 Leukemia (intraperitoneal) in B6D2F1 (BDF1) mice
condition-label: endpoint: median survival time; dose: 100.0 mg/kg/injection; schedule: Q04DX003 (ip); vehicle: other
Inconclusive results and toxic doses are left out. The calls were made as follows: active = survival T/C of 150% or more; inactive = T/C below 125% in these data.
Pick one: active, inactive

[[record]]
compound = "OC1(C2CCCCC2)C2CCCC1CCC2 (centres undefined)"
test_system = "BDF1 mice, P388 leukemia ip, median survival T/C"
qualitative_label = "inactive"

[[record]]
compound = "Cc1cc(C)c(C(=O)CC(=O)c2cccnc2)c(C)c1"
test_system = "BDF1 mice, P388 leukemia ip, median survival T/C"
qualitative_label = "inactive"

[[record]]
compound = "COc1ccc(C(C#N)CC(=O)c2ccc(OCc3ccccc3)c(OC)c2)cc1OC (centres undefined)"
test_system = "BDF1 mice, P388 leukemia ip, median survival T/C"
qualitative_label = "inactive"

[[record]]
compound = "COc1cc2cc3c4cc(OC)c(OC)cc4cc[n+]3c(C)c2cc1OC (tested in a mixture with another compound)"
test_system = "BDF1 mice, P388 leukemia ip, median survival T/C"
qualitative_label = "active"

[[record]]
compound = "C1CC2C(CCCC23OCCO3)C2(C1)OCCO2 (centres undefined)"
test_system = "BDF1 mice, P388 leukemia ip, median survival T/C"
qualitative_label = "inactive"


Problem: Write down the call the test reported for this compound. Item: "CCc1ccccc1NC(=O)c1ccccc1Cl"
Solution: inactive

Problem: Write down the call the test reported for this compound. Item: "CCCCCCCCCCCC(=O)CCCCC"
Solution: inactive

Problem: Write down the call the test reported for this compound. Item: "O=C(O)CCCc1ccc(Oc2ccccc2)cc1"
Solution: inactive

Problem: Write down the call the test reported for this compound. Item: "CCCNC(=O)NO"
Solution: inactive

Problem: Write down the call the test reported for this compound. Item: "OCc1cc(Cl)ccc1O"
Solution: inactive

Problem: Write down the call the test reported for this compound. Item: "O=[N+]([O-])c1ccc(C(F)(F)F)cc1"
Solution: inactive

Problem: Write down the call the test reported for this compound. Item: "COc1ccc(Cc2ccc(O)cc2)cc1"
Solution: inactive

Problem: Write down the call the test reported for this compound. Item: "C=C(COc1ccc(Cl)cc1)COc1ccc(Cl)cc1"
Solution: inactive

Problem: Write down the call the test reported for this compound. Item: CCOC(=O)CC(COC)C(C(=O)OCC)C(=O)OCC (centres undefined)
Solution: inactive
